This collection of values is drawn from ChEMBL document CHEMBL2413065.

biological target: Cytochrome P450 2D6 (Homo sapiens)
Sequence (P10635 whole entry): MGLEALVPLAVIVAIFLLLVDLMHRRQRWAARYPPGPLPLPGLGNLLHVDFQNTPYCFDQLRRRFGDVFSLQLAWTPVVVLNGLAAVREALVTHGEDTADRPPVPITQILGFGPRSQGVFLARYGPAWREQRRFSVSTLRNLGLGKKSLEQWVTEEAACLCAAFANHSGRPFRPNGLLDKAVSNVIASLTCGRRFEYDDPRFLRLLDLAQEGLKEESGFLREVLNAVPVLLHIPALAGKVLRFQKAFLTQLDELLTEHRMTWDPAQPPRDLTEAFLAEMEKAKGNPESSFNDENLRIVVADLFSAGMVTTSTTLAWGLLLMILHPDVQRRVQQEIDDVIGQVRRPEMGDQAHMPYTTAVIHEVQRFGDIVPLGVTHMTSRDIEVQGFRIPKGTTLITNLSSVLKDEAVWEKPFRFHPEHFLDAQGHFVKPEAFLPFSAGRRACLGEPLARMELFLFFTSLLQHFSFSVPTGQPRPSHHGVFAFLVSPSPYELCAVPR
measurement_kind: IC50

Prompt: Return reported IC50; argument: COc1cc(-c2nc3n(n2)CCC[C@H]3c2ccc(F)cc2C)ccc1-n1cnc(C)c1
Response: > 10 µM

* * *

biological target: Cytochrome P450 1A2 (Homo sapiens)
Sequence (P05177 whole entry): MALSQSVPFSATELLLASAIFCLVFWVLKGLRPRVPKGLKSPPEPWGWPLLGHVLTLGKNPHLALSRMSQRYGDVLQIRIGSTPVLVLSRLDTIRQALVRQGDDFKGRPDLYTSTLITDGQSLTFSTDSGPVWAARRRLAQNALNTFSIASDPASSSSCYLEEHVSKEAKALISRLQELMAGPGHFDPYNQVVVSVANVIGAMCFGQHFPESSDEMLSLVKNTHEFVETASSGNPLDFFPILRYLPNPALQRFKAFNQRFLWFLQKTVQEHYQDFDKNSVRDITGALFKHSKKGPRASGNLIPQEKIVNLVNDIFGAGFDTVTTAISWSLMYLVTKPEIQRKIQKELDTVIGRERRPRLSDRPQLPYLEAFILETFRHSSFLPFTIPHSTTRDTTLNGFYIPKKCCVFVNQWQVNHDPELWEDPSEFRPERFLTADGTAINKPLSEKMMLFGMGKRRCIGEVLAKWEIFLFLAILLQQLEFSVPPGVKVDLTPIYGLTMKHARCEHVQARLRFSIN
pIC50: −log10 of the molar value.
measurement_kind: pIC50

Prompt: Return reported pIC50; argument: COc1cc(-c2nc3n(n2)CCC[C@H]3c2ccc(F)cc2C)ccc1-n1cnc(C)c1
Response: < 5.00

* * *

target: Cytochrome P450 3A4 (Homo sapiens, UniProt P08684)
Sequence (P08684 whole entry): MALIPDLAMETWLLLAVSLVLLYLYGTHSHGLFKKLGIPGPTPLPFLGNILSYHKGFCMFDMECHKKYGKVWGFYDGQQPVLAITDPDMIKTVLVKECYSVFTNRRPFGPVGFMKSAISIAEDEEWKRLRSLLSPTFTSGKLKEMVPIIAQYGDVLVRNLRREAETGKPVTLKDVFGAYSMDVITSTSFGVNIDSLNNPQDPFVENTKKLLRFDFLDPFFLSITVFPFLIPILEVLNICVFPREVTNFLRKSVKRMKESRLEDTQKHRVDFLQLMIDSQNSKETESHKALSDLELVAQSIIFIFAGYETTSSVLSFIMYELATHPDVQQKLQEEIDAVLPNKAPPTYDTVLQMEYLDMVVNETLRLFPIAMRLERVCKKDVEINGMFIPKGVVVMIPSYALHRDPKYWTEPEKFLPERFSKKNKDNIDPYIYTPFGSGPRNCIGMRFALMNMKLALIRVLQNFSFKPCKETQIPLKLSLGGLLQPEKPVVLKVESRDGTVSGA
measurement_kind: IC50 (µM)
Respond with the bare value in µM.

Prompt: Can you look up IC50 on Cytochrome P450 3A4 (Homo sapiens, UniProt P08684) for COc1cc(-c2nc3n(n2)CCC[C@H]3c2ccc(F)cc2C)ccc1-n1cnc(C)c1 ?
Response: 6.94
